- experimental-system: tyrosinase (Agaricus bisporus, UniProt C7FF04)
- Construct: purchased Sigma-Aldrich T3824
- Sequence (C7FF04 1-392 limits assumed): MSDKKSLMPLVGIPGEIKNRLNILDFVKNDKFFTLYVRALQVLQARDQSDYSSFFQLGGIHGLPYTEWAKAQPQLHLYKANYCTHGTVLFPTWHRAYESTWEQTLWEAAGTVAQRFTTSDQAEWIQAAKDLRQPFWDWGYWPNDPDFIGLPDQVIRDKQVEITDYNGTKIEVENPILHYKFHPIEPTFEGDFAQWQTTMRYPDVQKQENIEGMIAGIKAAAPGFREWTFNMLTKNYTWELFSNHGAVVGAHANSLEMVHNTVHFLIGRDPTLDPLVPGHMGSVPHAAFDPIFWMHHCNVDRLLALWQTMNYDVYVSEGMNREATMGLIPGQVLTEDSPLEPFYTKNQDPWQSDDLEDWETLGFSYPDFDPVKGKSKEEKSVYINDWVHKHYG
- measurement-description: Tyrosinase assay (L-tyrosine substrate, product detected at 475 nm)
- Format: biochemical, mushroom
- reported-conditions: based on Dixon plots

{"columns": ["structure", "Ki [µM]"],
 "data": [
  ["Oc1cc(O)cc(Oc2c(O)cc(O)c3c2Oc2c(O)cc(O)c(-c4c(O)cc(O)c5c4Oc4c(O)cc(Oc6c(O)cc(O)cc6O)c(Oc6cc(O)cc(O)c6)c4O5)c2O3)c1", 5.8],
  ["Oc1cc(O)cc(Oc2c(Oc3c(O)cc(O)cc3O)cc(O)c3c2Oc2c(O)cc(O)cc2O3)c1", 8.2]
]}
